Tested on: Fusarium oxysporum
Test description: Antifungal activity against Fusarium oxysporum f. sp. lupini at 20 ug/ml after 192 hrs
Assay type: functional
Measurement type: Radial growth inhibition of fungi (Ā) (mm)

* COCC/N=C/c1c(O)c(O)c(C(C)C)c2cc(C)c(-c3c(C)cc4c(c3O)C(/C=N/CCOC)C(=O)C(O)=C4C(C)C)c(O)c12 (configuration not stated) | 58.88
* Cc1cc2c(c(O)c1-c1c(C)cc3c(C(C)C)c(O)c(O)c(/C=N/N4CCN(CCO)CC4)c3c1O)C(/C=N/N1CCN(CCO)CC1)C(=O)C(O)=C2C(C)C (configuration not stated) | 58.25
* C=CCN/C=C1\C(=O)C(O)=C(C(C)C)c2cc(C)c(-c3c(C)cc4c(c3O)/C(=C/NCC=C)C(=O)C(O)=C4C(C)C)c(O)c21 | 45.88
* CCCCOCCOCCN/C=C1\C(=O)C(O)=C(C(C)C)c2cc(C)c(-c3c(C)cc4c(c3O)/C(=C/NCCOCCOCCCC)C(=O)C(O)=C4C(C)C)c(O)c21 | 43.63
* Cc1cc2c(c(O)c1-c1c(C)cc3c(c1O)/C(=C/NCCOCCO)C(=O)C(O)=C3C(C)C)/C(=C/NCCOCCO)C(=O)C(O)=C2C(C)C | 45.25
* Cc1cc2c(c(O)c1-c1c(C)cc3c(c1O)/C(=C/NCCCN1CCCC1=O)C(=O)C(O)=C3C(C)C)/C(=C/NCCCN1CCCC1=O)C(=O)C(O)=C2C(C)C | 58.88
* COCCOCCOCCN/C=C1\C(=O)C(O)=C(C(C)C)c2cc(C)c(-c3c(C)cc4c(c3O)/C(=C/NCCOCCOCCOC)C(=O)C(O)=C4C(C)C)c(O)c21 | 44

---

Tested on: Fusarium oxysporum
Test description: Antifungal activity against Fusarium oxysporum f. sp. lupini at 0.1 ug/ml after 48 hrs
Format: functional
Measurement type: Radial growth inhibition of fungi (Ā) (mm)

- Cc1cc2c(C(C)C)c(O)c(O)c(C=O)c2c(O)c1-c1c(C)cc2c(C(C)C)c(O)c(O)c(C=O)c2c1O [GOSSYPOL]: 19.63
- C=CCN/C=C1\C(=O)C(O)=C(C(C)C)c2cc(C)c(-c3c(C)cc4c(c3O)/C(=C/NCC=C)C(=O)C(O)=C4C(C)C)c(O)c21: 19.25
- COCCOCCOCCN/C=C1\C(=O)C(O)=C(C(C)C)c2cc(C)c(-c3c(C)cc4c(c3O)/C(=C/NCCOCCOCCOC)C(=O)C(O)=C4C(C)C)c(O)c21: 16.75
- Cc1cc2c(c(O)c1-c1c(C)cc3c(c1O)/C(=C/NCCOCCO)C(=O)C(O)=C3C(C)C)/C(=C/NCCOCCO)C(=O)C(O)=C2C(C)C: 18.13
- CCCCOCCOCCN/C=C1\C(=O)C(O)=C(C(C)C)c2cc(C)c(-c3c(C)cc4c(c3O)/C(=C/NCCOCCOCCCC)C(=O)C(O)=C4C(C)C)c(O)c21: 16.38

Where do the numbers come from? From ChEMBL document CHEMBL1158404.
